System: Danio rerio embryo
protocol: BMC10 any morphological effect or mortality at 120 hpf; higher = less toxic
Task for the reader: assign each of the following compounds its reported BMC10 any morphological effect or mortality.

Prompt line: Value lookup for BMC10 any morphological effect or mortality; key = C[C@@]1(F)[C@H](O)[C@@H](CO)O[C@H]1n1ccc(=O)[nH]c1=O
Response line: > 100 µM

Prompt line: Would you kindly repeat that for O=C1C=CC2=CC=C(OC)C(C/C=C(C)\C)=C2O1 ?
Response line: 3.1 µM

Prompt line: Record: O=C(O)CCCCC1CCSS1 (racemic)
Response line: > 100 µM

Prompt line: Try this compound too: O=C(/C=C/c1ccc(O)c(O)c1)O[C@@H]1C[C@](OC(=O)/C=C/c2ccc(O)c(O)c2)(C(=O)O)C[C@@H](O)[C@H]1O
Response line: > 100 µM

Prompt line: Subsequent entry: Cc1ccc(C2Nc3ccccc3C(=O)N2c2ccccc2)s1 (stereo not given)
Response line: 0.795 µM
